Measured logP (HPLC, mobile phase not marked), listed per entry.
experiment_summary: log P determination by reversed-phase HPLC (EEC Directive 79/831 Annex V.A8; acidic or neutral mobile phase)
Assay type: physicochemical
measurement_setup: HPLC, reversed-phase C 18, 43° C.; mobile phase range not marked
measured_property: logP (HPLC, mobile phase not marked)

INSERT INTO results (smiles_string, measured_property, reported_measurement) VALUES
  ('CCn1ncc(C(=O)c2ccc(S(C)(=O)=O)c(CNOC)c2Cl)c1O', 'logP (HPLC, mobile phase not marked)', 1.20),
  ('CCn1ncc(C(=O)c2ccc(S(C)(=O)=O)c(CN(Cc3ccccc3)OC)c2Cl)c1O', 'logP (HPLC, mobile phase not marked)', 2.82),
  ('CCn1ncc(C(=O)c2ccc(S(C)(=O)=O)c(CN(C)OC)c2Cl)c1O', 'logP (HPLC, mobile phase not marked)', 1.78),
  ('CCN(Cc1c(S(C)(=O)=O)ccc(C(=O)c2cnn(CC)c2O)c1Cl)OC', 'logP (HPLC, mobile phase not marked)', 2.16),
  ('CCn1ncc(C(=O)c2ccc(S(C)(=O)=O)c(CNOCc3ccccc3)c2Cl)c1O', 'logP (HPLC, mobile phase not marked)', 2.31),
  ('CCn1nc(C)c(C(=O)c2ccc(S(C)(=O)=O)c(CN(C)OC)c2Cl)c1O', 'logP (HPLC, mobile phase not marked)', 1.45);
